compounds and their reported inhibition
Target: Potassium voltage-gated channel subfamily A member 5 (Homo sapiens)
Sequence (P22460 whole entry): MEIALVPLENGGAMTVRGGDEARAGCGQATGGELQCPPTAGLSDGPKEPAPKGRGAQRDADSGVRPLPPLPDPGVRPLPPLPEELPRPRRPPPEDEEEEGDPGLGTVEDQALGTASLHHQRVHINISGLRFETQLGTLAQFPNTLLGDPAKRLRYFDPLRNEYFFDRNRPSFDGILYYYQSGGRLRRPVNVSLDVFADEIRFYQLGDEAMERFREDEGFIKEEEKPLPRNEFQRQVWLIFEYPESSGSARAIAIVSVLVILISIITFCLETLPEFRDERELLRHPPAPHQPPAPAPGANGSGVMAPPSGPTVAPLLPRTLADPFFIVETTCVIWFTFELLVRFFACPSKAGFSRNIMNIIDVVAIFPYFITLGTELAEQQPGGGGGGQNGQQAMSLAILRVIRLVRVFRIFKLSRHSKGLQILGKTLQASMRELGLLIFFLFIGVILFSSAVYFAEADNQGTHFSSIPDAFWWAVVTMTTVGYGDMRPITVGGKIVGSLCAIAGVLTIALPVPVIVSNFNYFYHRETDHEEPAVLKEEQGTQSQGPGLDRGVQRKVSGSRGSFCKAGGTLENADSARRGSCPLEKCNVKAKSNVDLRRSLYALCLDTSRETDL
Test: Percent inhibition of human voltage-gated potassium channel subunit Kv1.5 expressed in Xenopus oocytes at 10 uM
Assay type: cell-based
Conditions: Oocyte

CC[C@H](NC(=O)c1cc(OCC2CC2)ccc1NS(=O)(=O)c1ccc(C)cc1)c1ccccc1 | 41%
CC[C@H](NC(=O)c1cc(OCCOC)ccc1NS(=O)(=O)c1ccc(C)cc1)c1ccccc1 | 46%
CC[C@H](NC(=O)c1cc(OCN(C)C)ccc1NS(=O)(=O)c1ccc(C)cc1)c1ccccc1 | 15%

What measured inhibition goes with `CC[C@H](NC(=O)c1ccccc1NS(=O)(=O)c1cccnc1)c1ccccc1` ?
36%
